The values you see were collected from the supplement of paper PMC10567573.

# protein stability index listing for each entry below
B1: ZNF449 (parent)
chain: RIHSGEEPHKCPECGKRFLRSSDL

variants of: B1; assay: protein stability index of a GFP-peptide fusion (GPS, HEK-293T) (PSI 1-6); higher = more stable; conditions: c terminus: a fixed tail appended;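 note: lentivirally expressed fusions sorted by FACS into six bins by GFP to DsRed ratio, PSI derived from sequencing read proportions per bin multiplied by bin number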

Below, 5 variants whose answers are already recorded.
S22Y: 3.01
E13V: 3.44
S4Q: 4.12
L24C: 3.63
F18D: 4.4

// recorded protein stability index for R1I : 2.38

S4I yielded protein stability index of 3.07

variant L19D , protein stability index observed: 3.88
